Tested on: MS2 coat protein
Assay: apparent Kd, MS2 coat protein; higher = weaker binding; RNA-MaP array
Conditions: designed as: ON switch for flavin mononucleotide; no ligand
Answer false if apparent Kd is under 50 nM, and true if it is 50 nM or more.

Illustrative cases are given below, each with its answer.
>  <ORDERED RESIDUES>
GGGGGUUGGACAGGAUAUAGAGGUCUCGUGUGGAGAUGCACAACGACAUGAGGAUCACCCAUGUGCUAGAAGGGUCUGCGAUAG

>  <ASSIGNED LABEL>
false

$$$$
>  <ORDERED RESIDUES>
CCAGGGCUCGAGAAGGCCCGCGCGGUUCAGUACGUAGGUACAUGAGGAUCACCCAUGUCGGAUUGGGAGGAUAUCGAUUCUUGU

>  <ASSIGNED LABEL>
true

$$$$
>  <ORDERED RESIDUES>
AAAUAUAAUCAGAAGGGUUGCUAAACAUGAGGAUCACCCAUGUGAUAACGAUACGAGUAAAUCGAACAGGAUAUGAUGCAGGUU

>  <ASSIGNED LABEL>
false

$$$$
>  <ORDERED RESIDUES>
AAACACAACCAGAAGGCCAAAACAUGAGGAUCACCCAUGUAGAUAAGAAGAGUAAGCACUGUCAUGGAGGAUAUGGGUCAAAAC

>  <ASSIGNED LABEL>
false

$$$$

Request: Assess whether reported apparent Kd for `AUUUGACAUGAGGAUCACCCAUGUGACUUGUCGUGAGGAUAUUAUUGAAAUCUAUGUCAUUAAGAAGGCACAAUUU` sits at 50 nM or higher.
Response: false

Request: Assess whether reported apparent Kd for `CAAUGAACAUGAGGAUCACCCAUGUAGUAAUGCGAGAAAACGAAGGAUAUAGCGAUACUACAUAGCAAGAAGGUCGCAAACAUA` sits at 50 nM or higher.
Response: false

Request: Assess whether reported apparent Kd for `UCGGGUAAGCAGAAGGCACUAGAUUCUCUUUCAGCGAUAUAACAUGAGGAUCACCCAUGUAGAGGUGAGGAUAUGCAGAAACGC` sits at 50 nM or higher.
Response: true
